Experiment: NFAT Signaling Pathway (AID 444);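 further: carbachol stimulus at about its EC50 of 1 µM final; on the % scale 0 is the no-effect control and ±100 the full control effect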
Conditions: Jurkat NFAT-bla M1, carbachol, beta-lactamase ratio, 5 h; at 7.69 µM (top of the series) unless noted
Inconclusive results are not listed.
value kind: activity change, negative = inhibition (%)
Just the number in %, nothing appended.

>>> numeric_result("O=C(O)CC[C@]1(C(=O)O)CCC(=O)c2ccccc21")
4.42
>>> numeric_result("O=C1Nc2ccccc2C1=Nc1cccc2ncccc12")
-3.54
>>> numeric_result("COc1ccc(CCCC(=O)O)c(C)c1")
-4.8
>>> numeric_result("Cc1n[nH]c2ccccc2c1=O")
-1.3
>>> numeric_result("COCCn1c(=O)c(-c2ccccc2)nc2cnc(Oc3ccccc3)nc21")
-6.49
>>> numeric_result("Cc1cn(CC[C@H](N)C(=O)O)c(=O)[nH]c1=O")
-6.68
>>> numeric_result("CN1CCc2[nH]nc(-c3n[nH]c4c3CN(C)CC4)c2C1")
4.1
>>> numeric_result("O=C(O)CCC(=O)c1ccc(Cl)cc1")
-7.55

For the compound Cc1[nH]c(C)c(CN(C)C)c1CN(C)C , what activity change, negative = inhibition is on record?
-26.2

Please report the recorded activity change, negative = inhibition for O=S1(=O)CCN(Cc2ccccn2)CC1 .
13

Could you tell me which activity change, negative = inhibition is on file for N#CCCn1c(=O)c(-c2ccccc2)nc2cnc(Oc3cccc(Cl)c3)nc21 ?
-23.9

activity change, negative = inhibition for O[C@@H](COc1ccc(Cl)cc1Cl)CN1CCCC1 ?
2.25

Any idea what activity change, negative = inhibition was measured for O=C(Oc1ccc2c(c1)CN(Cc1ccccc1)CO2)c1ccccc1 ?
13.3

Param item = Cc1ccc2nc(CC(=O)c3ccc4ccccc4c3)c(=O)[nH]c2c1 ; retrieve measured activity change, negative = inhibition.
-17.8

Which value of activity change, negative = inhibition has been reported for CC(=O)N[C@H](Cc1ccc(O)cc1)C(=O)O in the records?
-3.29

# input compound: CC(C)N1CCN(c2ccncc2S(=O)(=O)N2CCCCC2)CC1 ; wanted: its activity change, negative = inhibition
-81.6

Item CN1CCC(n2[nH]c(-c3ccccc3)c(Cc3ccccc3)c2=O)CC1 has what recorded activity change, negative = inhibition?
-82.4

GET /values?readout=activity change, negative = inhibition&item= O=S(=O)(c1ccc2ccccc2c1)N1CCN(S(=O)(=O)c2ccc3ccccc3c2)CC1
-5.78

# get_value(readout='activity change, negative = inhibition', item= c1ccc(C(CCN2CC3CCC(CC3)C2)c2ccccc2)cc1 )
-81.8

So what does the record say about activity change, negative = inhibition for O=C(O)CNc1ccc(C(=O)O)cc1 ?
12.8

Field request: activity change, negative = inhibition | item: O=C(O)[C@@H]1[C@@H]2C[C@@H]3[C@@H](OC(=O)[C@@H]31)[C@H]2Br
-26.7

Look at this compound and give its reported activity change, negative = inhibition. COc1ccc2nccc(SCC(=O)O)c2c1
6.79

Tell me the measured activity change, negative = inhibition of CC(C)NC1(C(N)=O)CCN(Cc2ccccc2)CC1 , please.
-10.3

For the compound O=C(O)CC(CC(=O)O)C(=O)O , what activity change, negative = inhibition is on record?
8.83

What measured activity change, negative = inhibition goes with Cc1nc2cnc(N3CCOCC3)nc2n(Cc2cccs2)c1=O ?
-3.19
